# Read-out: Apolipoprotein A-V (APOA5) gene, APOA5 (gene 116519)
# method_notes: LTEA_HepaRG_APOA5: Life Technologies and Expression Analysis (LTEA) Assay for Apolipoprotein A-V (APOA5) gene using HepaRG (AID 2283474)
# recorded_conditions: mRNA level, 48 h; actives raise or lower the signal
The source made the active and inactive calls. How the source made its calls: active means hit-call score of the fitted dose curve at least 0.9, where 1 is the maximum; inactive means score below 0.9.
Your response should consist of one outcome taken from 1 (active), -1 (inactive)

{"molecule": "CC(C)c1cccc(C(C)C)c1NC(=O)NS(=O)(=O)c1cc(C(C)(C)O)co1", "class_assignment": -1}

Given CC(=O)O[C@]1(C(C)=O)CC[C@H]2[C@@H]3C=C(Cl)C4=CC(=O)[C@@H]5C[C@@H]5[C@]4(C)[C@H]3CC[C@@]21C , state the outcome it received in this test.
1

Given CC(=O)S[C@H](C(=O)N[C@H]1Cc2ccccc2[C@H]2CCC[C@@H](C(=O)O)N2C1=O)C(C)C , state the outcome it received in this test.
-1

Given CC(=O)OCC(COC(C)=O)OC(C)=O , state the outcome it received in this test.
-1

Given O=C(O)CN(CC(=O)O)CC(=O)O , state the outcome it received in this test.
-1

Given O=C(O)c1cccnc1 , state the outcome it received in this test.
-1

Given O=C1CCCCC1 , state the outcome it received in this test.
-1

Given CC(C)(C)c1ccccc1 , state the outcome it received in this test.
-1

Given Cc1occc(=O)c1O , state the outcome it received in this test.
-1

---

# Read-out: Tissue Factor, F3 (gene 2152)
# method_notes: BSK_CASM3C_TissueFactor: BioMAP Diversity Plus: CASM3C Assay for Tissue Factor Biomarker Activity (AID 2283052);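 further: cell surface tissue factor protein level read by ELISA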
# recorded_conditions: primary human coronary artery smooth muscle cells; actives raise or lower the signal
The source made the active and inactive calls. How the source made its calls: active means hit-call score of the fitted dose curve at least 0.9, where 1 is the maximum; inactive means score below 0.9.
Your response should consist of one outcome taken from active, inactive

Below are worked cases with known answers.
{"molecule": "O=C(NS(=O)(=O)/C=C/c1cccs1)c1ccc(F)cc1Br", "class_assignment": "active"}
{"molecule": "CC(C)OC(=O)C(C)(C)Oc1ccc(C(=O)c2ccc(Cl)cc2)cc1", "class_assignment": "inactive"}
{"molecule": "O=C(O)CC(O)(CC(=O)O)C(=O)O", "class_assignment": "inactive"}

Given CCCCC(CC)CO (stereo not drawn) , state the outcome it received in this test.
inactive

Given Cc1cc(SC2=C(O)C[C@@](CCc3ccc(N)cc3)(C(C)C)OC2=O)c(C(C)(C)C)cc1CO , state the outcome it received in this test.
inactive

Given COC(=O)CCCC(=O)OC , state the outcome it received in this test.
inactive

Given CC(=O)O , state the outcome it received in this test.
inactive

---

# Read-out: UDP glucuronosyltransferase (UGT1A6), UGT1A6 (gene 54578)
# method_notes: LTEA_HepaRG_UGT1A6: Life Technologies and Expression Analysis (LTEA) Assay for UDP glucuronosyltransferase (UGT1A6) using HepaRG (AID 2283539)
# recorded_conditions: mRNA level, 48 h; actives raise or lower the signal
Active and inactive are the calls of the source. The calls were made as follows: active = hit-call score of the fitted dose curve at least 0.9, where 1 is the maximum; inactive = score below 0.9.
Your response should consist of one outcome taken from true (1) (active), false (0) (inactive)

Below are worked cases with known answers.
{"compound": "Cc1ccc(-c2cc(C(F)(F)F)nn2-c2ccc(S(N)(=O)=O)cc2)cc1", "class_assignment": "true (1)"}
{"compound": "Cc1occc(=O)c1O", "class_assignment": "false (0)"}
{"compound": "CC(=O)O", "class_assignment": "false (0)"}

# ---- query compound ----
Given OCC(O)CO , state the outcome it received in this test.
false (0)

---

# Read-out: Matrix Metallopeptidase 9 (MMP9), MMP9 (gene 4318)
# method_notes: BSK_KF3CT_MMP9: BioMAP Diversity Plus: KF3CT Assay for Matrix Metallopeptidase 9 (MMP9) Biomarker Activity (AID 2283074)
# recorded_conditions: primary human keratinocytes with fibroblasts; actives raise or lower the signal
Active and inactive are the calls of the source. Rule for the calls: active = hit-call score of the fitted dose curve at least 0.9, where 1 is the maximum; inactive = score below 0.9.
Your response should consist of one outcome taken from True for active, False for inactive

Below are worked cases with known answers.
{"compound": "Cc1cn([C@H]2C=C[C@@H](CO)O2)c(=O)[nH]c1=O", "class_assignment": "False"}
{"compound": "Nc1nc(Cl)nc2c1ncn2[C@H]1C[C@H](O)[C@@H](CO)O1", "class_assignment": "False"}
{"compound": "O=C(O)CN(CC(=O)O)CC(=O)O", "class_assignment": "False"}
{"compound": "CCCC(=O)O", "class_assignment": "False"}
{"compound": "CC(=O)CC(c1ccccc1)c1c(O)c2ccccc2oc1=O (stereo not drawn)", "class_assignment": "False"}

Given O=C1c2c(O)cccc2Cc2cccc(O)c21 , state the outcome it received in this test.
True

Given O=C1NC(=O)C(c2ccccc2)(c2ccccc2)N1 , state the outcome it received in this test.
False

Given CCCCOC(=O)CCCCC(=O)OCCCC , state the outcome it received in this test.
False

---

# Read-out: Alkaline Phosphatase, Placental (ALPP) gene, ALPP (gene 250)
# method_notes: LTEA_HepaRG_ALPP: Life Technologies and Expression Analysis (LTEA) Assay for Alkaline Phosphatase, Placental (ALPP) gene using HepaRG (AID 2283468)
# recorded_conditions: mRNA level, 48 h; actives raise or lower the signal
Calls of active or inactive are those of the source. The calls were made as follows: active = hit-call score of the fitted dose curve at least 0.9, where 1 is the maximum; inactive = score below 0.9.
Your response should consist of one outcome taken from active, inactive

{"compound": "COC(=O)CCCC(=O)OC", "class_assignment": "inactive"}
{"compound": "C=CCCCCCCCCCCCC", "class_assignment": "inactive"}
{"compound": "COc1ccc(C(=O)Nc2nc3ccccc3c(NCc3ccccc3)c2C#N)cc1", "class_assignment": "inactive"}
{"compound": "NC(=Nc1ccccc1)Nc1ccccc1", "class_assignment": "inactive"}
{"compound": "O=C(O)CC(O)(CC(=O)O)C(=O)O", "class_assignment": "inactive"}
{"compound": "CC(=O)OCC(COC(C)=O)OC(C)=O", "class_assignment": "inactive"}
{"compound": "O=C(NS(=O)(=O)/C=C/c1cccs1)c1ccc(F)cc1Br", "class_assignment": "inactive"}
{"compound": "O=C(O)c1cccnc1", "class_assignment": "inactive"}
{"compound": "COC(=O)CCC(=O)OC", "class_assignment": "inactive"}
{"compound": "CC(C)c1cccc(C(C)C)c1", "class_assignment": "inactive"}

Given CC1(C)C(=O)NC(=O)N1CO , state the outcome it received in this test.
inactive

Given CCC(C)N(C)C(=O)c1cc2ccccc2c(-c2ccccc2Cl)n1 (centres undefined) , state the outcome it received in this test.
inactive

Given CC(C)NCC(O)c1ccc(O)c(O)c1 (centres undefined) , state the outcome it received in this test.
active

Given C=CCc1ccc(OC)c(OC)c1 , state the outcome it received in this test.
inactive

Given CC(=O)O[C@]1(C(C)=O)CC[C@H]2[C@@H]3C=C(Cl)C4=CC(=O)[C@@H]5C[C@@H]5[C@]4(C)[C@H]3CC[C@@]21C , state the outcome it received in this test.
inactive

Given CC(N)=O , state the outcome it received in this test.
inactive

---

# method_notes: APR_HepG2_MitoMembPot_72hr: Apredica 72-hour HepG2 Assay for Mitochondrial Membrane Potential (AID 2282917)
# recorded_conditions: imaging, actives raise or lower the signal
Calls of active or inactive are those of the source. Rule for the calls: active = hit-call score of the fitted dose curve at least 0.9, where 1 is the maximum; inactive = score below 0.9.

{"structure": "NCCOCCOCCN", "outcome": "inactive"}
{"structure": "CC(C)OC(=O)C(C)(C)Oc1ccc(C(=O)c2ccc(Cl)cc2)cc1", "outcome": "inactive"}
{"structure": "CCCCCCC(C=O)=Cc1ccccc1", "outcome": "inactive"}

---

# Read-out: Transforming growth factor beta 1 (TGFb1), TGFB1 (gene 7040)
# method_notes: BSK_BE3C_TGFb1: BioMAP Diversity Plus: BE3C Assay for Transforming growth factor beta 1 (TGFb1) Biomarker Activity (AID 2283036;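 further: TGF-b1 protein level measured by ELISA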)
# recorded_conditions: primary human bronchial epithelial cells; actives raise or lower the signal
Calls of active or inactive are those of the source. Rule for the calls: active = hit-call score of the fitted dose curve at least 0.9, where 1 is the maximum; inactive = score below 0.9.
Your response should consist of one outcome taken from t (active), f (inactive)

Below are worked cases with known answers.
{"compound": "O=NO", "class_assignment": "f"}
{"compound": "COC(=O)CCCC(=O)OC", "class_assignment": "f"}

Given CO[C@@H]1COCC[C@@H]1N[C@@H]1CC[C@@](C(=O)N2CCc3ncc(C(F)(F)F)cc3C2)(C(C)C)C1 , state the outcome it received in this test.
f

Given O=C(O)CC(O)(CC(=O)O)C(=O)O , state the outcome it received in this test.
f

Given NC(=Nc1ccccc1)Nc1ccccc1 , state the outcome it received in this test.
f

Given O=C(O)CN(CC(=O)O)CC(=O)O , state the outcome it received in this test.
f

Given CC1=C(C)S(=O)(=O)CCS1(=O)=O , state the outcome it received in this test.
f

Given Cn1cnc2c1c(=O)[nH]c(=O)n2C , state the outcome it received in this test.
f
